Experiment: protein stability index of a GFP-peptide fusion (GPS, HEK-293T) (PSI 1-6); higher = more stable;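 note: 24-mer peptide tiles fused after GFP, lentivirally expressed, FACS-sorted into six equal bins by GFP/DsRed ratio, decoded by Illumina sequencing, PSI is the read-weighted mean bin number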
Conditions: treatment: MLN4924 1 uM, 8 h; c terminus: a fixed tail appended
Each entry gets f if its protein stability index stays under 4, and t if its protein stability index is 4 or above.

Query string: Is protein stability index at least 4? Consider EERASLAGNRNSMVIHIPEEPRPS [KCNK9]
Result string: t

---

Assay: protein stability index of a GFP-peptide fusion (GPS, HEK-293T) (PSI 1-6); higher = more stable
Details: treatment: DMSO; c terminus: a fixed tail appended
value type: protein stability index
Write the value as a bare number.

Answered cases to consult:
>>> print(df.to_string())
                          biosequence  observed_result
0    TQHHFAFQNAERAFKAAALIQRWY [PPEF2]             3.09
1    PPGGSGSEPYKLLPGAVATIVKPL [HNF4A]             3.59
2   VRTMQNTNDVETARCTAGTLHNLS [CTNNB1]             3.57
3    NRRDVEAWFFSKTEELNKEVASNT [KRT15]             4.05
4  QLQHDFPRALIFSTDDFFFREDGA [N4BP2L1]             3.09
5  HLYLLRGLPGSGKTTLARQLQHDF [N4BP2L1]             2.35
6    EPEQTGADAAEDEEVDVTSVDPIA [RBBP5]             5.64
7   HPVLHKEEKQHLERLNKEYQEIFQ [TRIM43]              3.9

Query string: Tell me its protein stability index given GYKEFFMKCQSYCEPPSYRPMHHE [CDC25A] as the entry.
Result string: 2.49

Query string: Give protein stability index for FNIVYIYTSELYPTVIRNVGLGTC [SLC22A15]
Result string: 3.07

---

This section presents sequences with their documented protein stability index values.
Experiment: protein stability index of a GFP-peptide fusion (GPS, HEK-293T) (PSI 1-6); higher = more stable
Settings: treatment: MLN4924 1 uM, 8 h; c terminus: a fixed tail appended
Respond numerically, and do not add a unit to the figure.

In [3]: df
Out[3]:
                           biosequence               value_type  observed_result
0    MGTRRKHLGCAVYQDMIYAVGGRD [KLHL20]  protein stability index             2.29
1       VKYIVERTMLDFPQHVSSDKEVRA [NLN]  protein stability index             2.69
2      KTLQPTKQPNCSSLFKLKPLSNKT [PLD5]  protein stability index             3.09
3      DTPCTNRGLPLLKTDFGSCLLQPP [DLC1]  protein stability index             3.34
4      EALAKWAEGRTGFPWIDAIMTQLR [CRY1]  protein stability index             2.73
5  KAPSTDDATWAAVAACTKEIDTQG [C10orf62]  protein stability index             5.11

Query string: Specify measured protein stability index for VYRDLKPENILLDRDGHIKLTDFG [PRKX] .
Result string: 3.54

Query string: Identify measured protein stability index associated with TGTSNTTAIKSIEFARKGSCFLIN [RBBP5]
Result string: 2.42

Query string: Query protein stability index for AQLFMDHLFAGAEVILLVVMAYDR [OR4A15]
Result string: 2.75

Query string: Please report the measured protein stability index for LHAVADIHCENCKTTLGWKYEQAF [YPEL3]
Result string: 2.14

Query string: Answer with the recorded protein stability index of RLLLAGAEVQAKLENAEVLELTVR [HES6] only.
Result string: 2.63

Query string: Tell me its protein stability index given HNSINQSLDESVIYGPGNLSTNNN [SLC2A12] as the entry.
Result string: 4.7

Query string: Tell me protein stability index reported for VGFRLCNSTGGDCFYRGYTSGVAA [SCNN1D]
Result string: 1.94

Query string: Give protein stability index for the following sequence: TEKSGKREFDVRQTPQVNINPFTP [WEE1]
Result string: 4.25
